# assayed_system: T1, Human CD3eg linker (human)
# T1 construct: Single-chain construct; also called recombinant human CD3
# T1 chain: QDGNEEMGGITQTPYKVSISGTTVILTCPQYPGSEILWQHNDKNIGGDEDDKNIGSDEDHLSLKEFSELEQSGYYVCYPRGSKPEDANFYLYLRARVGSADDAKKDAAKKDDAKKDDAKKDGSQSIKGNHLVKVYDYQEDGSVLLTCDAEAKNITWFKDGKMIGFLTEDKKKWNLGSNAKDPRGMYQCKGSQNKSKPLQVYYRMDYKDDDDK
# method: SPR; fold vs parent H183/L072
Assign class by fold change of affinity: not lower than 0.6 fold means t; lower than 0.6 fold means f.

Reference set, count: 7
# check: fold change of affinity of H183/L072 VL A89M (antibody, name in Kabat numbering, V domains shown) VH: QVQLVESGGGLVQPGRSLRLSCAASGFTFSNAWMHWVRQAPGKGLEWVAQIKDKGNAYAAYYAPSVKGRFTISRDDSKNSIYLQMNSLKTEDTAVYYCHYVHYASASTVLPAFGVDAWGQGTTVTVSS VL: DIVMTQSPLSLPVTPGEPASISCQASQELVHMNRNTYLHWYQQKPGQAPRLLIYKVSNRFPGVPDRFSGSGSGTDFTLKISRVEAEDVGVYYCMQGTSVPFTFGQGTKLEIK is greater than or equal to 0.6 fold
f

# check: fold change of affinity of H183/L072 VL Q27A (antibody, name in Kabat numbering, V domains shown) VH: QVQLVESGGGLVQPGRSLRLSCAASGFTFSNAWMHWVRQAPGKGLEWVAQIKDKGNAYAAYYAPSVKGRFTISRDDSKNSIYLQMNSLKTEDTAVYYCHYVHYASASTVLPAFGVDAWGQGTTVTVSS VL: DIVMTQSPLSLPVTPGEPASISCQASAELVHMNRNTYLHWYQQKPGQAPRLLIYKVSNRFPGVPDRFSGSGSGTDFTLKISRVEAEDVGVYYCAQGTSVPFTFGQGTKLEIK is greater than or equal to 0.6 fold
t

# check: fold change of affinity of H183/L072 VL N53Q (antibody, name in Kabat numbering, V domains shown) VH: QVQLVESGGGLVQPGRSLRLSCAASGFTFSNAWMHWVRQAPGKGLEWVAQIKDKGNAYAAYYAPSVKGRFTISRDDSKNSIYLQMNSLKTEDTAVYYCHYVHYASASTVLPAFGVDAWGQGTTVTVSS VL: DIVMTQSPLSLPVTPGEPASISCQASQELVHMNRNTYLHWYQQKPGQAPRLLIYKVSQRFPGVPDRFSGSGSGTDFTLKISRVEAEDVGVYYCAQGTSVPFTFGQGTKLEIK is greater than or equal to 0.6 fold
t

# check: fold change of affinity of H183/L072 VL F96H (antibody, name in Kabat numbering, V domains shown) VH: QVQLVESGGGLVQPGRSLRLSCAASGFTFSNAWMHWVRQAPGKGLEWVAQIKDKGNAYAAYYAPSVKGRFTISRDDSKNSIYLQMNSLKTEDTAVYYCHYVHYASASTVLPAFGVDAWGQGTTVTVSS VL: DIVMTQSPLSLPVTPGEPASISCQASQELVHMNRNTYLHWYQQKPGQAPRLLIYKVSNRFPGVPDRFSGSGSGTDFTLKISRVEAEDVGVYYCAQGTSVPHTFGQGTKLEIK is greater than or equal to 0.6 fold
f

# check: fold change of affinity of H183/L072 VL R54F (antibody, name in Kabat numbering, V domains shown) VH: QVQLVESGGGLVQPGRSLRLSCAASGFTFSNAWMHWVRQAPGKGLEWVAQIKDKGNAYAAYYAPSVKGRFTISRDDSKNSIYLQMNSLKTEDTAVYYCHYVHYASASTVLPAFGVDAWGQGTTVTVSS VL: DIVMTQSPLSLPVTPGEPASISCQASQELVHMNRNTYLHWYQQKPGQAPRLLIYKVSNFFPGVPDRFSGSGSGTDFTLKISRVEAEDVGVYYCAQGTSVPFTFGQGTKLEIK is greater than or equal to 0.6 fold
t

# check: fold change of affinity of H183/L072 VL F96S (antibody, name in Kabat numbering, V domains shown) VH: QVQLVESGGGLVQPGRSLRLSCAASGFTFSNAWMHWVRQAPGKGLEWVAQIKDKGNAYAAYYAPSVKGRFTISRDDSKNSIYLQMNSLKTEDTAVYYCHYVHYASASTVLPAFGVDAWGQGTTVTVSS VL: DIVMTQSPLSLPVTPGEPASISCQASQELVHMNRNTYLHWYQQKPGQAPRLLIYKVSNRFPGVPDRFSGSGSGTDFTLKISRVEAEDVGVYYCAQGTSVPSTFGQGTKLEIK is greater than or equal to 0.6 fold
f

# check: fold change of affinity of H183/L072 VL M27eF (antibody, name in Kabat numbering, V domains shown) VH: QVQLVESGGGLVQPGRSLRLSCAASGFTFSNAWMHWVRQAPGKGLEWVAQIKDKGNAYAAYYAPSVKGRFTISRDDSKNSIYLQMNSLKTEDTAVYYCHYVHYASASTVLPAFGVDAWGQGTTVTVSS VL: DIVMTQSPLSLPVTPGEPASISCQASQELVHFNRNTYLHWYQQKPGQAPRLLIYKVSNRFPGVPDRFSGSGSGTDFTLKISRVEAEDVGVYYCAQGTSVPFTFGQGTKLEIK is greater than or equal to 0.6 fold
t

Now consider the entry below.
# check: fold change of affinity of H183/L072 VL F55S (antibody, name in Kabat numbering, V domains shown) VH: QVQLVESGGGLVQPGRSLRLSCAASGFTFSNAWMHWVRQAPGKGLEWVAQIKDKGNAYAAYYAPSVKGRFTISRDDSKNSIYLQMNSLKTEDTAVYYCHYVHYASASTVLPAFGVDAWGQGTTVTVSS VL: DIVMTQSPLSLPVTPGEPASISCQASQELVHMNRNTYLHWYQQKPGQAPRLLIYKVSNRSPGVPDRFSGSGSGTDFTLKISRVEAEDVGVYYCAQGTSVPFTFGQGTKLEIK is greater than or equal to 0.6 fold
t
